Data origin, for the record: patent US6903085B1

Readout Type: melting point (°C)

[
  {
    "Substance Smiles": "Cc1sc(-c2ccc(Cl)cc2)nc1CC(=O)NC1CCN(Cc2ccc(Cl)c(Cl)c2)CC1",
    "Result Unit": "°C",
    "melting point": 170
  },
  {
    "Substance Smiles": "O=C(CCCC(=O)c1ccccc1)NC1CCN(Cc2ccc(Cl)c(Cl)c2)CC1",
    "Result Unit": "°C",
    "melting point": 130
  },
  {
    "Substance Smiles": "O=C(CCc1nc(-c2ccccn2)no1)NC1CCN(Cc2ccc(Cl)c(F)c2)CC1",
    "Result Unit": "°C",
    "melting point": 132
  },
  {
    "Substance Smiles": "O=C(CCc1nc(-c2ccccn2)no1)NC1CCN(Cc2ccc(Cl)c(Cl)c2)CC1",
    "Result Unit": "°C",
    "melting point": 155
  },
  {
    "Substance Smiles": "Clc1ccc(CN2CCC(Nc3nc4ccccc4[nH]3)CC2)cc1Cl",
    "Result Unit": "°C",
    "melting point": 125
  },
  {
    "Substance Smiles": "O=C(Cc1nc(-c2ccccn2)no1)NC1CCN(Cc2ccc(Cl)c(Cl)c2)CC1",
    "Result Unit": "°C",
    "melting point": 145
  },
  {
    "Substance Smiles": "O=C(CCc1nc(-c2ccccn2)no1)NC1CCN(Cc2ccc(F)c(Cl)c2)CC1",
    "Result Unit": "°C",
    "melting point": 150
  },
  {
    "Substance Smiles": "Cc1c(CC(=O)NC2CCN(Cc3ccc(Cl)c(Cl)c3)CC2)cnn1-c1ccccc1",
    "Result Unit": "°C",
    "melting point": 165
  }
]

P: O=C(CSc1ncc(-c2ccccc2)cn1)NC1CCN(Cc2ccc(Cl)c(Cl)c2)CC1
Q: O=C(CSc1ccc(C(F)(F)F)cn1)NC1CCN(Cc2ccc(Cl)c(Cl)c2)CC1
Pick one: P or Q . Which one has the lower reported melting point? Answer = label.
Q
(Q: 98 °C, P: 157 °C)

====

Counter-ions that a name gives are not always drawn.
// reported melting point per item

State, in one line, measured melting point of "O=C(CSc1ccccc1)NC1CCN(Cc2ccc(Cl)c(Cl)c2)CC1"
97 to 99 °C

State, in one line, measured melting point of COc1cccc(NC(=O)CNC2CCN(Cc3ccc(Cl)c(Cl)c3)CC2)c1 (as salt: hydrochloride) [Example 104, dihydrochloride Salt]
274 to 276 °C

State, in one line, measured melting point of "COc1cccc(NC(=O)NC2CCN(Cc3ccc(Cl)c(Cl)c3)CC2)c1"
178 to 179 °C

====

Where a name gives a salt, the structure may show the parent alone.
Readout Type: melting point

[
  {
    "Compound": "O=C(Cc1ccc(F)cc1)NC1CCN(Cc2ccc(Cl)c(Cl)c2)CC1",
    "Result": "144 to 147 °C"
  }
]

State, in one line, measured melting point of "O=C(Nc1ccc(Cl)c(Cl)c1)NC1CCN(Cc2ccc(Cl)c(Cl)c2)CC1"
189 to 190 °C

State, in one line, measured melting point of COc1ccc(CNC2CCN(Cc3ccc(Cl)c(Cl)c3)CC2)cc1 (as salt: hydrochloride) [Example 107, dihydrochloride Salt]
> 250 °C

State, in one line, measured melting point of "O=C(Cc1csc(-c2cnccn2)n1)NC1CCN(Cc2ccc(Cl)c(Cl)c2)CC1"
186 to 189 °C
